Test system: 3T3-L1
experiment: Cytotoxicity against mouse 3T3L1 cells assessed as effect on cell viability at 10 uM after 48 hrs by MTT assay
Assay type: cell-based
condition summary: 3t3-l1, 48 h
measurement type: Activity

{"columns": ["line notation", "result"],
 "data": [
  ["COc1ccc(-c2coc3cc(OCc4c(-c5c(Cl)cccc5Cl)noc4C(C)C)ccc3c2=O)cc1", "Non-Toxic"],
  ["CC(C)c1onc(-c2c(Cl)cccc2Cl)c1COc1ccc2c(=O)c(-c3ccc(OCC(=O)O)cc3)coc2c1", "Non-Toxic"],
  ["CC(C)c1onc(-c2c(Cl)cccc2Cl)c1COc1ccc(/C=C/c2cccc(C(=O)O)c2)c(Cl)c1", "Non-Toxic"],
  ["COC(=O)c1ccc(-c2coc3cc(OCc4c(-c5c(Cl)cccc5Cl)noc4C(C)C)ccc3c2=O)cc1", "Non-Toxic"],
  ["CCNC(=O)c1ccc(-c2coc3cc(OCc4c(-c5c(Cl)cccc5Cl)noc4C(C)C)ccc3c2=O)cc1", "Non-Toxic"]
]}
